Please provide measured Speed 8 to 10 (concentration) 100 uM for the entries that follow.
Test system: Drosophila Huntington's Disease model flies
Assay: In Vivo Drosophila Fly Assay for Treatment of Huntington's Disease (automated climbing behavioral assay)
Parameters: species or system Drosophila melanogaster
Settings: effect size of late speed (days 8-10) vs DMSO-carrier control; 100 uM
// return just the number, without any unit appended

Challenge: // Input: Cc1cccc(N2CC3CC2CN3c2ncc(C(=O)NO)cn2)c1 (centres unmarked) . Output its Speed 8 to 10 (concentration) 100 uM only.
Response given: 0.359

Challenge: // Input: O=C(NO)c1cnc(N2CC3CC2CN3c2cccc(C(F)(F)F)n2)nc1 (centres unmarked) . Output its Speed 8 to 10 (concentration) 100 uM only.
Response given: 0.376

Challenge: // Input: O=C(NO)c1ccc(C2=Nc3ccccc3Oc3ccc(F)cc32)cc1 [drawing 821] . Output its Speed 8 to 10 (concentration) 100 uM only.
Response given: 0.139

Challenge: // Input: O=C(NO)c1cnc(N2CC3CC2CN3c2cc(C(F)(F)F)ccn2)nc1 (centres unmarked) . Output its Speed 8 to 10 (concentration) 100 uM only.
Response given: 0.82

Challenge: // Input: O=C(NO)c1cnc(N2CC3CC2CN3c2cccc(OC(F)(F)F)c2)nc1 (centres unmarked) . Output its Speed 8 to 10 (concentration) 100 uM only.
Response given: 0.16

Challenge: // Input: CC(C)OC(=O)N1CC2CC1CN2c1ncc(C(=O)NO)cn1 (centres unmarked) . Output its Speed 8 to 10 (concentration) 100 uM only.
Response given: 0.368

Challenge: // Input: O=C(NO)c1cnc(N2CC3CC2CN3c2cccc(C(F)(F)F)c2)nc1 (centres unmarked) . Output its Speed 8 to 10 (concentration) 100 uM only.
Response given: 0.3

Challenge: // Input: O=C(NO)c1cnc(N2CC3CC2CN3c2cccc3nonc23)nc1 (centres unmarked) . Output its Speed 8 to 10 (concentration) 100 uM only.
Response given: 0.26

Challenge: // Input: O=C(NO)c1cnc(N2CC3CC2CN3c2cccc(SC(F)(F)F)c2)nc1 (centres unmarked) . Output its Speed 8 to 10 (concentration) 100 uM only.
Response given: 0.02

Challenge: // Input: O=C(NO)c1cnc(N2CC3CC2CN3c2ccc3c(c2)OC(F)(F)O3)nc1 (centres unmarked) . Output its Speed 8 to 10 (concentration) 100 uM only.
Response given: 0.46

Challenge: // Input: Cc1ccc(N2CC3CC2CN3c2ncc(C(=O)NO)cn2)cc1 (centres unmarked) . Output its Speed 8 to 10 (concentration) 100 uM only.
Response given: −0.369
